These data points were gathered from patent US20170319688A1.

Reported koff by item:
Tested Target: T1, human RSPO3 (human, UniProt Q9BXY4 22-272)
T1 construct: Recombinant human RSPO3 protein (Genentech); also called huRSPO3; hRSPO3
T1 sequence: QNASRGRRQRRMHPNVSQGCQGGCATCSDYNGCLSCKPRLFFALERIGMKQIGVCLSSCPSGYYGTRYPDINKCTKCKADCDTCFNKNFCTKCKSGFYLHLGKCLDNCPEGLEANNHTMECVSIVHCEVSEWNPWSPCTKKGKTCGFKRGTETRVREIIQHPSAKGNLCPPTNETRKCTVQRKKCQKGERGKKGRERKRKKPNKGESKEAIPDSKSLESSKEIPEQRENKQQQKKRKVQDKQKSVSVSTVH
Experimental Details: SPR (BIAcore T200), RSPO3 immobilized, antibody injected, 25 C, 1:1 Langmuir
// note: answer is a bare numeric in s⁻¹

• chimeric 4A6 (antibody, V domains shown, Chimeric counterpart of hu4A6 with the rat 4A6 variable domains) VH: EVQLVESGGGSVQPGRSLKVSCAASGFTFSDYDMAWVRQAPKKGLEWVATIIYDGSRTYYRDSVKGRFTLSRDNTKSTLCLQMDSLRSEDTATYYCAAHDRSFDYWGQGIMVTVSS VL: DIQMTQSPASLSASLGETVSIECLASEDISNDLVWYQQKSGKSPQLLIYAASRLQDGVPSRFSGSGFGTRFSLKISGMQPEDEADYFCQQSYKYLPTFGAGTKLGLK = 5.85e-05

Proceed to the following item.
Q. Quick check: koff of chimeric 15F3 (antibody, V domains shown, Chimeric counterpart with the rat 15F3 variable domains) VH: EVQLVESGGGLVQPGRSLKLSCAASGFTFSDYDMAWVRQAPKKGLEWVATIIYDGSRAYFGDSVRGRFTVSRDNTKSTLYLQMDSLRSEDTATYYCTAHDRSFDYWGQGVMVTVSS VL: DIQMTQSPASLSASLGETVSIECLVSEDISNDFVWYQQKSGKSPQLLIYAASRLQDGVPSRFSGSGSGTRFSLRISGMQPEDEAEYFCQQSYKYPPTFGAGTKLELK ?
A. 0.000151
